# assayed-system: Serine/threonine-protein kinase PLK1 (Homo sapiens)
# test-protocol: qHTS for Inhibitors of PLK1-PDB (polo-like kinase 1 - polo-box domain): Primary Screen; also: series mostly up to about 57 µM; % is scaled to controls: 0 for no effect and ±100 for the full control effect; nearly all actives have a fitted effect of over 65% in size
# experimental-parameters: Plk1 PBD binding of FITC phosphopeptide, fluorescence polarization
Among all 360,000 compounds or so, about 10,000 (2.8%) were called active. About 4% were inconclusive and are not listed. The sample as a whole holds a higher share of actives than the screen did.
metric-name: max response, negative = inhibition (%)
// note: answer is a bare numeric in %

Take a look at these entries with their results.
query: Provide only the value of recorded max response, negative = inhibition for O=C(CNC(=O)N1CC(=O)Nc2ccccc21)Nc1ccc(Br)cc1F
result: -4.26

query: Determine its reported max response, negative = inhibition: CN(C)CCOc1cccc(Br)c1
result: -4.17

query: Return the recorded max response, negative = inhibition value; entry: CCC(C(=O)NCc1ccc(OC)cc1)n1nc(C)n2c(cc3occc32)c1=O (configuration not stated)
result: -1.71

query: Output measured max response, negative = inhibition for this item: Cc1cccc(C(=O)NC2CCN(CC(=O)Nc3cccc(Cl)c3)CC2)c1
result: -8.54

query: Determine its reported max response, negative = inhibition: CCOc1ccc(S(=O)(=O)N2CCN(C(=S)NCC3CCCO3)CC2)cc1 (configuration not stated)
result: 1.52

query: Please supply the value of reported max response, negative = inhibition for the item O=C(Cn1nnc(N2CCCCC2)n1)c1ccc(Cl)c(Cl)c1
result: -14.1

Further cases:
query: Fill in reported max response, negative = inhibition for this entry: OCCN1CCN(c2ncnc3c2ncn3[C@H]2CN(Cc3ccco3)C[C@@H](CO)O2)CC1
result: -11.1

query: // fetch max response, negative = inhibition given entry COc1ccc(C(=O)N2CCCCC2c2cc(C(=O)Nc3ccccc3)no2)cc1 (configuration not stated)
result: -2.81

The reported numbers originate from PubChem BioAssay AID720504.
